Task for the reader: assign each of the following compounds its reported Ki.
Molecular target: human GlyT1c transporter (Homo sapiens)
Construct: expressed in transfected cells; host or cells: CHO cells (recombinant; line hGlyT1c_5_CHO is named for the uptake assay)
Sequence (P48067 1-706): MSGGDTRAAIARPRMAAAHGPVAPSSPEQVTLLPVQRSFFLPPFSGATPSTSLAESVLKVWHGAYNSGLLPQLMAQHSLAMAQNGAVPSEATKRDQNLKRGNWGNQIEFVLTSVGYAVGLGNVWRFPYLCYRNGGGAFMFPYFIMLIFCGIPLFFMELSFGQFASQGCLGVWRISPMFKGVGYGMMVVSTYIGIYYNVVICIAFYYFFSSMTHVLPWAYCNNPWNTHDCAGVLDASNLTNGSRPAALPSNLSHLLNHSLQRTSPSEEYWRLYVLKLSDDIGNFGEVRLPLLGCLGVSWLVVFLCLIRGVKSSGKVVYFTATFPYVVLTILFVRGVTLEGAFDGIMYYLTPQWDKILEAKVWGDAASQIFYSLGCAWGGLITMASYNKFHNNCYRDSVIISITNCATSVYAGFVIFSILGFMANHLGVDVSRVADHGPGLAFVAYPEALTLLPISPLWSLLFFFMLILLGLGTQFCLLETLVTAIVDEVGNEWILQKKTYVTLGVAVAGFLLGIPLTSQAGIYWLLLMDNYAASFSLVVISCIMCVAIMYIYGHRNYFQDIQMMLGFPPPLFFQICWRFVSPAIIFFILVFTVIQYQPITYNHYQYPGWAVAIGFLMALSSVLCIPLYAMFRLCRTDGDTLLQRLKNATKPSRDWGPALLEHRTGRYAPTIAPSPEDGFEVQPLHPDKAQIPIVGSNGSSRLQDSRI
Experiment: Radioligand binding assay using recombinant CHO cell membranes expressing human GlyT1
Settings: radioligand binding to human GlyT1c transporter-expressing membranes

Tell me the measured Ki of `Cn1cnc(S(=O)(=O)N2C[C@H](Nc3cc(-c4ccccc4)ncn3)[C@@H](c3ccc(F)cc3)C2)c1` , please. ≤ 10 nM

Tell me the measured Ki of Cc1cccc(NC[C@@H]2CN(S(=O)(=O)c3cn(C)cn3)C[C@H]2c2ccc(F)cc2)c1 (relative stereo) , please. ≤ 1000 nM

Tell me the measured Ki of CCC(C)C(C)CN[C@H]1CN(S(=O)(=O)c2cn(C)cn2)C[C@@H]1c1ccccc1 (some centres unmarked) , please. ≤ 1000 nM

Tell me the measured Ki of CCC(CN[C@H]1CN(S(=O)(=O)c2cn(C)cn2)C[C@@H]1c1ccccc1)C(C)C (some centres unmarked) , please. ≤ 10000 nM

Tell me the measured Ki of Cn1nccc1S(=O)(=O)N1C[C@@H](NC(=O)c2cccc(C(F)(F)F)c2Cl)[C@H](c2ccccc2)C1 (relative stereo) , please. ≥ 10000 nM

Tell me the measured Ki of Cn1cnc(S(=O)(=O)N2C[C@@H](NC(=O)c3cc(Cl)cc(Cl)c3)[C@H](c3ccc(F)cc3)C2)c1 (relative stereo) , please. ≤ 1000 nM

Tell me the measured Ki of `Cn1cnc(S(=O)(=O)N2C[C@H](Nc3cc(Cl)c(Cl)cn3)[C@@H](c3ccc(F)cc3)C2)c1` , please. ≤ 10000 nM

Tell me the measured Ki of Cn1cnc(S(=O)(=O)N2C[C@@H](C(=O)Nc3ccc(F)c(OC(F)(F)F)c3)[C@H](c3ccc(F)cc3)C2)c1 (relative stereo) , please. ≤ 1000 nM

Tell me the measured Ki of Cn1cnc(S(=O)(=O)N2C[C@@H](Nc3ccc(F)c(Cl)c3)[C@H](c3ccc(F)cc3)C2)c1 [Example 387] , please. ≤ 10000 nM

Tell me the measured Ki of `Cn1cnc(S(=O)(=O)N2C[C@H](Nc3cccc(-c4ccccn4)c3)[C@@H](c3ccc(F)cc3)C2)c1` , please. ≤ 10 nM

Tell me the measured Ki of CCOCCNC[C@@H]1CN(S(=O)(=O)c2cn(C)cn2)C[C@H]1c1ccc(F)cc1 (relative stereo) , please. ≤ 10000 nM

Tell me the measured Ki of Cn1cnc(S(=O)(=O)N2C[C@@H](Nc3cccc(C(F)(F)F)c3)[C@H](c3ncccc3F)C2)c1 (relative stereo) , please. ≤ 100 nM

Tell me the measured Ki of Cn1cnc(S(=O)(=O)N2C[C@@H](Nc3cccc(C(F)(F)F)c3F)[C@H](c3ccccc3)C2)c1 (relative stereo) , please. ≤ 1000 nM

Tell me the measured Ki of `CCCC(F)(F)CN[C@H]1CN(S(=O)(=O)c2cn(C)cn2)C[C@@H]1c1ccc(F)cc1` , please. ≤ 100 nM
